Test system: SGC-7901 cells
Test: MTT cytotoxicity assay, SGC-7901
Type: cell-based, human
Settings: 48 h, read-out: IC50 toward SGC-7901
Quantity name: pIC50
Answers are plain numbers, as −log10 of the molar value.

Solved cases below.
Problem: Given the entry F[P-](F)(F)(F)(F)F.Nc1c(N)c2cccnc2c2ncccc12.[Ir+3].[c-]1ccccc1-c1ccccn1.[c-]1ccccc1-c1ccccn1 [Complex 3, [Ir(Hppy)2(DAP)]PF6] , report its measured pIC50.
Result: 4.95

Problem: # repeat for F[P-](F)(F)(F)(F)F.O=[N+]([O-])c1cc2ccc[n+]3c2c2c1ccc[n+]2[Ir-5]312([c]3ccccc3-c3cccc[n+]31)[c]1ccccc1-c1cccc[n+]12 [Complex 1, [Ir(Hppy)2(NP)]PF6]
Result: 5.44

Problem: # repeat for F[P-](F)(F)(F)(F)F.Nc1c([N+](=O)[O-])c2cccnc2c2ncccc12.[Ir+3].[c-]1ccccc1-c1ccccn1.[c-]1ccccc1-c1ccccn1 [Complex 2, [Ir(Hppy)2(NAP)]PF6]
Result: 4.85

Others:
Problem: Given the entry N.N.[Cl][Pt][Cl] [Cisplatin, reference compound] , report its measured pIC50.
Result: 5.44
